target: GPR139 (Homo sapiens); test: GPR139 Antagonist titration assay (calcium detection, HEK-GPR139 cells, vs EC80 of S-JNJ-63533054); settings: fitted dose-response curve
readout: GPR139 Antagonist Activity Hill Slope
Answer field: number only, no words.

*Q* Give the reported value of GPR139 Antagonist Activity Hill Slope for this record: `Cc1cc(C(=O)N/N=C/c2cn(Cc3ccccc3)c3ccccc23)n[nH]1`
*A* 0.68

*Q* Give GPR139 Antagonist Activity Hill Slope for CCOC(=O)c1c(C)nc2c(c1-c1ccc(F)cc1)C(=O)CC(c1ccc(Cl)cc1)C2 (stereo not shown)
*A* 1.28

*Q* Tell us which GPR139 Antagonist Activity Hill Slope value is on record for `O=C(Nc1ccccc1C(=O)O)c1ccc(Oc2ccc([N+](=O)[O-])cc2)cc1`
*A* 2.60

*Q* Please report the measured GPR139 Antagonist Activity Hill Slope for `Cc1cc(C)c(NC(=O)c2ccc(Br)cc2)c(C)c1NC(=O)c1ccc(Br)cc1`
*A* 1.46

*Q* Using the record for `Cc1ccc(CNC(=O)CSc2nc3ccsc3c(=O)n2NC(=O)c2cccc(Br)c2)cc1` , state its measured GPR139 Antagonist Activity Hill Slope.
*A* 0.71

*Q* Retrieve GPR139 Antagonist Activity Hill Slope measured for `O=c1c(-c2ccc(Cl)cc2)c(C(F)(F)F)oc2cc(O)ccc12` and print it.
*A* 1.59

*Q* Annotate the compound `CC1=NN(Cc2ccc(Cl)cc2Cl)C(=O)C1` with its measured GPR139 Antagonist Activity Hill Slope.
*A* 1.01

*Q* Entry `Brc1ccc2[nH]cc(-c3nnc4ccc5ccccc5n34)c2c1` needs its GPR139 Antagonist Activity Hill Slope filled in; supply it.
*A* 1.32

*Q* Look up and state reported GPR139 Antagonist Activity Hill Slope for `COc1cccc(OC)c1C(=O)Oc1ccc2c(=O)c(-c3ccc(Cl)cc3)c(C(F)(F)F)oc2c1`
*A* 1.41

*Q* Find the measured GPR139 Antagonist Activity Hill Slope of `Cc1ccc(-n2cc(-c3ccccc3)nc2SCC(=O)Nc2ccc(F)cc2)cc1` and report it.
*A* 1.40

*Q* Identify GPR139 Antagonist Activity Hill Slope associated with the compound `Cc1cccc(NC(=O)CCC(=O)OCc2ccc(Br)cc2)c1`
*A* 1.14

*Q* Respond only with GPR139 Antagonist Activity Hill Slope recorded for `Nc1cccc(C(=O)Nc2cc(O)n(-c3c(Cl)cc(Cl)cc3Cl)n2)c1`
*A* 0.70

*Q* Please indicate GPR139 Antagonist Activity Hill Slope recorded for `CCOC(=O)N1CCC(NC(=O)c2cnn3c(O)c(Cc4cccc(C)c4)c(C)nc23)CC1`
*A* 1.46

*Q* Consider the compound COc1ccc(C(C(=O)NC(C)c2ccccc2)(c2ccccc2)c2ccccc2)cc1 (stereo not shown) and give its recorded GPR139 Antagonist Activity Hill Slope.
*A* 0.94

*Q* Determine its reported GPR139 Antagonist Activity Hill Slope: `CCCc1sc(N2CCN(C(=O)c3ccccc3)CC2)nc1-c1ccccc1`
*A* 1.89

*Q* Using the record for `O=C(CSc1nc(-c2ccccc2)cn1-c1ccccc1)Nc1ccc(F)cc1` , state its measured GPR139 Antagonist Activity Hill Slope.
*A* 0.45

*Q* Give me measured GPR139 Antagonist Activity Hill Slope, please, for this compound: `O=C(NCCC1CCCCC1)N1c2ccccc2Sc2ccccc21`
*A* 1.28

*Q* Report measured GPR139 Antagonist Activity Hill Slope; entry is `Cc1ccc(-c2cn(-c3ccccc3)c(SCC(=O)Nc3ccccc3C)n2)cc1`
*A* 1.62

*Q* // fetch GPR139 Antagonist Activity Hill Slope given entry `O=C(Nn1c(-c2cccc(Cl)c2)nc2ccccc2c1=O)c1cc(Br)ccc1Cl`
*A* 0.97

*Q* Consider the compound CCn1cc(Cl)c(C(=O)OCC23CCC4c5ccccc5OC(C)(CC2C)C4C3C)n1 (stereo not shown) . State its measured GPR139 Antagonist Activity Hill Slope.
*A* 2.37

*Q* Assign GPR139 Antagonist Activity Hill Slope to the following record: CCOC(=O)C(CC)Oc1ccc2c(C)c(Cc3ccccc3)c(=O)oc2c1 (stereo not shown)
*A* 1.98

*Q* Determine from records and report GPR139 Antagonist Activity Hill Slope for `COc1ccccc1-n1cc(-c2ccccc2)nc1SCC(=O)Nc1cccc(C)c1C`
*A* 0.44

*Q* Look up and report measured GPR139 Antagonist Activity Hill Slope for this entry: `CCc1ccccc1NC(=O)CSc1nnc(-c2ccccc2)c(-c2ccccc2)n1`
*A* 0.67

*Q* Give GPR139 Antagonist Activity Hill Slope for `Cc1ccc(-n2cc(-c3ccccc3)nc2SCC(=O)Nc2ccccc2)cc1`
*A* 0.71

*Q* Using the record for `COc1ccc(-c2noc(CN3CCCN(c4ccc(F)cc4)CC3)n2)c(OC)c1OC` , state its measured GPR139 Antagonist Activity Hill Slope.
*A* 1.11

*Q* Indicate its recorded GPR139 Antagonist Activity Hill Slope; the compound in question is `CCCOC(=O)c1ccc(NC(=O)CSc2ccccc2)cc1`
*A* 1.77

*Q* Please report the measured GPR139 Antagonist Activity Hill Slope for `Cc1cc(I)ccc1NC(=O)CSc1cccs1`
*A* 0.87

*Q* Using known records, supply GPR139 Antagonist Activity Hill Slope for `COc1ccc(-c2cccc(NS(=O)(=O)c3ccc(I)cc3)c2)nn1`
*A* 1.00

*Q* Identify GPR139 Antagonist Activity Hill Slope associated with the compound `Cc1c(-c2cccc(NC(=O)C3c4ccccc4Oc4ccccc43)c2)nc2ncccn12`
*A* 0.23

*Q* Specify GPR139 Antagonist Activity Hill Slope for `Cc1cc(C)cc(-n2cnc3cc(C(=O)NCc4ccccc4Cl)ccc32)c1` and stop.
*A* 2.25

*Q* Kindly indicate its recorded GPR139 Antagonist Activity Hill Slope. Item: `O=C(CSc1nc(-c2ccccc2)cn1-c1ccc(F)cc1)Nc1ccccc1`
*A* 1.24

*Q* Write down GPR139 Antagonist Activity Hill Slope measured for item `COc1ccc(-n2cc(-c3ccccc3)nc2SCC(=O)Nc2ccccc2C)cc1`
*A* 0.79

*Q* For the compound `Cc1ccc(-n2cc(-c3ccccc3)nc2OCC(=O)Nc2ccccc2C)cc1` , give its reported GPR139 Antagonist Activity Hill Slope.
*A* 0.81

*Q* Tell me its GPR139 Antagonist Activity Hill Slope given CC(=O)N1N=C(c2ccc(C)cc2)CC1c1ccccc1Cl (stereo not shown) as the entry.
*A* 1.19

====

Target: GPR139 (Homo sapiens)
Sequence (Q6DWJ6 1-353): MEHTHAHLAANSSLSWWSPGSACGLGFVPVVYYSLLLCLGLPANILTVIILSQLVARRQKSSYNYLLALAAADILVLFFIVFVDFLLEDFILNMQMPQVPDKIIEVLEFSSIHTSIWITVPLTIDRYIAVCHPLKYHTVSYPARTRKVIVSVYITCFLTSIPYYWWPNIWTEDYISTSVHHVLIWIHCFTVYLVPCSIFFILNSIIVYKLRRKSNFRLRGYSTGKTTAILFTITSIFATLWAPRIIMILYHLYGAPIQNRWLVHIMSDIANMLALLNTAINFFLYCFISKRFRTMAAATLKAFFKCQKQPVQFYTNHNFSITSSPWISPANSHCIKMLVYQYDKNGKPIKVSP
Experiment: GPR139 Agonist titration / agonist counterscreen assay (calcium detection, HEK-GPR139 cells)
Type: cell-based
Design: expressed in transfected cells; host or cells: HEK Aequorin cells, Maxcyte transient transfection
Conditions: GPR139 Agonist Activity; fitted dose-response curve
So I've got a bunch of compounds here, and I need their Hill Slope values.

*Q* Determine its reported Hill Slope: `O=C(CCC1CCCC1)NNC(=O)CSc1ccc(Cl)cc1`
*A* 0.62

*Q* Complete the entry with Hill Slope for O=C(CC1Nc2ccccc2NC1=O)NCC1COc2ccccc2O1 (stereo not shown)
*A* 0.77

*Q* Find the measured Hill Slope of `Cc1ccc(C)c(C(=O)CCC(=O)NNC(=O)c2cc(C)oc2C)c1` and report it.
*A* 0.80

*Q* Please look at this compound and report its Hill Slope: O=C(Cc1ccccc1)CC1C=CC2=C1c1ccccc1CC2 (stereo not shown)
*A* 0.39

*Q* For the compound Cc1cccc(OCC(=O)NNC(=O)C(C)Oc2ccc(Cl)cc2Cl)c1 (stereo not shown) , give its reported Hill Slope.
*A* 1.08

*Q* Query Hill Slope for `O=C(CCc1nc2ccccc2s1)NNC(=O)C1CCCCC1`
*A* 0.84

*Q* Please report the measured Hill Slope for CC1C(CC(=O)NCC(=O)CCC2=Cc3ccccc3C2)=Nc2ccccc21 (stereo not shown)
*A* 0.93

*Q* Specify reported Hill Slope for the compound shown: `O=c1nc(SCc2ccccc2F)c2c([nH]1)CCC2`
*A* 0.53

*Q* Look up Hill Slope of `O=C(CCCOc1ccc(Cl)cc1Cl)NNC(=O)Cc1ccccc1` and report it.
*A* 0.94

*Q* Return the recorded Hill Slope value; entry: `O=C(CCc1nc2cccnc2n1Cc1cccs1)NCCc1cccs1`
*A* 0.45

*Q* Fill in Hill Slope for record `Cc1ccc2c(c1)-c1c(cnn1CC(=O)Nc1ccccn1)CO2`
*A* 1.07

*Q* Give the reported value of Hill Slope for this record: `CCOc1ccc(C(=O)NCCc2ccc(F)cc2)cc1OCC`
*A* 1.05

*Q* State its Hill Slope for this compound: `O=C(CN1CCCN(Cc2ccc(F)cc2Cl)C1=O)NC1CCCCCC1`
*A* 0.79

*Q* Report measured Hill Slope; entry is `COc1cc(C(C)=O)ccc1OCC(=O)OCC(=O)NCCCc1ccccc1`
*A* 0.52

*Q* Supply recorded Hill Slope for `Cc1c(Br)c([N+](=O)[O-])nn1CC(=O)NCCc1ccc(Cl)cc1` here.
*A* 0.27

*Q* Note down Hill Slope recorded for `COc1cc(OC)cc(-c2nnc(NC(=O)Cc3cccc4ccccc34)o2)c1`
*A* 0.93

*Q* For `Cc1ccc(NC(=O)Cn2ncc3c2-c2ccccc2OC3)cc1F` , write its Hill Slope.
*A* 0.14

*Q* Tell me its Hill Slope given `Cc1ccc(CCNC(=O)Cn2cc3c(n2)CCCC3)cc1` as the entry.
*A* 0.44

*Q* Identify Hill Slope associated with the compound Cc1cc(Cl)ccc1OC(C)C(=O)NNC(=O)c1ccccc1 (stereo not shown)
*A* 0.63
